EXPERIMENTAL_DETAILS: NCI Yeast Anticancer Drug Screen. Data for the bub3 strain (AID 167)
MEASUREMENT_CONTEXT: S. cerevisiae bub3 mutant strain, at 50.0 µM, active compounds read high
This is part of a sample that, as a whole, favours compounds with a hit. Of some 79,000 tested, about 15% had one in any assay. The source made the active and inactive calls. Cut-off read from the data, not from the text of the source: active = growth inhibition above about 70%; inactive = the rest.
Answer each item with its documented growth inhibition.

For each of the molecules below, note its growth inhibition.
1. Cc1cc(Cl)c(O)c(-c2cc(-c3ccc([N+](=O)[O-])cc3)c3c(N)[nH]c(=O)nc3n2)c1
2. CC12NN=NC1C(=O)NC2=O (stereo unspecified)
3. CC(C)(C)c1ccnc(C(O)(C(F)(F)F)C(F)(F)F)c1
4. O=C(O)C#Cc1cccnc1
5. Cc1cc(C)c(C2CNCc3cc4c(cc32)CNCC4c2c(C)cc(C)cc2C)c(C)c1 (stereo unspecified)
6. O=C(O)CCC(C(=O)O)N1C(=O)C2C3CCC(C3)C2C1=O (stereo unspecified)
7. COC(=O)C(Cc1c[nH]c2ccccc12)NC(=O)C(Cc1cnc[nH]1)NC(=O)C1CCC(=O)N1C(=O)OCc1ccccc1 (stereo unspecified)
8. O=c1c2ccccc2[nH]c2ccc(O)cc12

*A*
19.6% (inactive)
-3.1% (inactive)
-7.75% (inactive)
-3.4% (inactive)
-62.8% (inactive)
-24.9% (inactive)
-1.35% (inactive)
3.2% (inactive)

For each of the molecules below, note its growth inhibition.
1. COc1ccc2cc(NC(=O)N/N=C\c3ccc([N+](=O)[O-])cc3)ccc2c1
2. O=C1C=C(Nc2ccc(Cl)cc2C(=O)c2ccccc2)c2ccccc2C1=O
3. Cc1ccc(NC2=CC(=O)C(=O)c3ccccc32)cc1C
4. COc1ccc(/C=C2\N=C(c3ccccc3)OC2=O)c(Cl)c1OC
5. Cc1cc(N(CCC#N)S(=O)(=O)c2ccccc2)ccc1/C=C1\N=C(c2ccc(Cl)cc2)OC1=O
6. S=C(NCc1ccco1)Nc1ccccc1Cl
7. CCOC(=O)NC(NC(=O)OCC)c1ccc(OC)cc1

*A*
1: 12.9% (inactive); 2: -6.55% (inactive); 3: 34% (inactive); 4: -5.25% (inactive); 5: -2.7% (inactive); 6: 4.4% (inactive); 7: -6.55% (inactive)

For each of the molecules below, note its growth inhibition.
1. Nc1[nH]c(=O)nc2c1ncn2C1OC(CO)C(O)C1O (stereo unspecified)
2. CC(C)N(Cc1ccccc1)C(=O)Nc1ccc(Cc2ccc(NC(=O)N(Cc3ccccc3)C(C)C)cc2)cc1

*A*
["-4.25% (inactive)", "-10.1% (inactive)"]

For each of the molecules below, note its growth inhibition.
1. O=C(O)CNC(=O)Cc1ccccc1
2. O=C1c2sccc2[C@H](NC(=O)C(F)(F)F)[C@@H]1Cl
3. O=C(OCc1ccccc1CN1CCCC1)c1cccc(Cl)c1
4. CC(C)OC(=S)Nc1ccc(Cl)c(COC(C)(C)C)c1
5. COC(CNc1nc2c(s1)c1c(O)c3c(O)c(C)c4c(c32)C(=O)C(C)(O/C=C\C(OC)C(C)C(OC(C)=O)C(C)C(O)C(C)C(O)C(C)/C=C/C=C(/C)C(=O)N1)O4)OC (stereo unspecified)
6. CNc1cccc2c1C(=O)c1ccccc1C2=O
7. CN(C)c1ccc(/C=N/NC=O)c(Cl)c1

*A*
1: -38.6% (inactive); 2: 7.25% (inactive); 3: 8.35% (inactive); 4: -10.1% (inactive); 5: -15.6% (inactive); 6: 3.85% (inactive); 7: -0.65% (inactive)

For each of the molecules below, note its growth inhibition.
1. CN1CCC(O)(C(C)(C)C)CC1
2. CCCCNCCOC(=O)c1ccc(N)cc1
3. CC1(C)COCN1COCCOCN1COCC1(C)C
4. CCN(CC)CCNc1cc2ccccc2c2sc3ccccc3c(=O)c12
5. CCc1c(C#N)c(=O)[nH]c(=O)n1CCN1CCN(C(=O)NCCCCCCNC(=O)N2CCN(CCn3c(CC)c(C#N)c(=O)[nH]c3=O)CC2)CC1
6. O=C(/C(=C/c1ccc(Cl)cc1)c1ccccc1)c1ccccc1

*A*
-3.7% (inactive)
10.1% (inactive)
-25.9% (inactive)
98.2% (active)
2.7% (inactive)
-21.1% (inactive)

For each of the molecules below, note its growth inhibition.
1. NC(=O)c1ncn(C2CCC(CP(=O)(O)O)C2)c1N (stereo unspecified)
2. O=C1c2ccccc2C2CC1c1ccccc12 (stereo unspecified)
3. CC(C)(C)OC(=O)N1CC(C)(C)N2C(=O)C3(CCCO3)C12 (stereo unspecified)
4. Cc1cc(C)c(C)c(CC(C)(CI)CI)c1C
5. O=C1OC(/C=C/c2ccccc2)C(=O)C1=O (stereo unspecified)
6. O=C(CCC(=O)Nc1ccc(Cl)c(Cl)c1)CC(=O)c1ccc(F)cc1

*A*
1: -7% (inactive); 2: -16.4% (inactive); 3: -16.6% (inactive); 4: -8.05% (inactive); 5: -9.75% (inactive); 6: 19.1% (inactive)

The measurements presented in this section are drawn from PubChem BioAssay (NCI).
